Hi there, I'd appreciate the recorded IC50 for every entry that follows.
Tested on: H3K27 methylation in G401 cell
Assay: ELISA (H3K27 methylation) assay in G401 cells
Type: cell-based, human
Conditions: Homo sapiens, G-401, H3K27 methylation ELISA, read-out: (c) IC50 ELISA Qualified
Give bare numbers, in nM.

In the examples that follow, each entry is paired with its recorded IC50.
# smiles, unit_symbol, IC50
measured = [
    ("COc1cccc(F)c1CNc1ccc(-c2cnc(N3CCOCC3)nc2C)c2nncn12", "nM", 7.8),
    ("COc1ccncc1-c1ccc(NCc2c(F)cccc2OC)n2cnnc12", "nM", 13.1),
    ("COc1cc(F)cc(F)c1CNc1ccc(-c2cnc(C)cc2C(F)F)c2nncn12", "nM", 53.2),
    ("COc1cc(F)cc(F)c1CNc1ccc(-c2ccc(S(C)(=O)=O)cc2)c2nncn12", "nM", 138),
]

Using the record for COCc1cncc(-c2ccc(NCc3c(F)cccc3OC)n3cnnc23)c1 , state its measured IC50.
38.7
